Data origin, for the record: paper PMC8809517

ASSAYED_TARGET: T1, GFP-9S library array, motif 4 ND N98Y;D124G (synthetic construct, N98Y;D124G)
T1 chain: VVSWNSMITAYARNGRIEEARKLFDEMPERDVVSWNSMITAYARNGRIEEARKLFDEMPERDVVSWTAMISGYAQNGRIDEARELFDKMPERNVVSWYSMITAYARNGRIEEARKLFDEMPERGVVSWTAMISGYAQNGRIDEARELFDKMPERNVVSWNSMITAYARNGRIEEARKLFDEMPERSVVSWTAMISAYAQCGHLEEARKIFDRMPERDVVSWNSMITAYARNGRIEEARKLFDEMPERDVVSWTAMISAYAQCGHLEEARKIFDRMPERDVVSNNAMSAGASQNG
PROTOCOL_DETAILS: high-throughput RNA pulldown from lysate on Ni-NTA beads; HRP: 50 mM Tris pH 8, 150 mM NaCl, 1 mM beta-mercaptoethanol, 50 ug/ml BSA, 3 ug/ml yeast RNA, 0.5% heparin; ITC and FP: Tris pH 8, 200 mM KCl, 5% glycerol; MST: 50 mM Tris pH 8, 200 mM NaCl, 1 mM DTT, BSA, heparin, 0.05% Tween 20
ASSAY_CONDITIONS: tags: N-terminal His-eGFP; label: 5' Cy5
Measured pKd by item
FYI, pKd means -log10 of a concentration in mol per litre.

AUUACACGUGA (ssRNA) [Cy5-rpoA] = 6.74

Now consider the entry below.
What pKd value was documented for this binder, AUUAGACGUGA (ssRNA) [Cy5-rpoA-G] ?
6.75
